- Experiment summary: Microsomal stability, human liver microsomes (predicted hepatic clearance)
- Test parameters: predicted from in vitro microsomal stability data
Entries whose Predicted Hepatic Clearance (Pred. Cl.) is below 6 mL/min/kg take T; entries at or above 6 mL/min/kg take F.

Compound: COCCn1c(Cc2cc(F)c(-c3ccc(F)c(NCc4ccc(C#N)cc4F)n3)cc2F)nc2ccc(C(=O)O)cc21
Category label: F
--
Compound: COCCn1c(Cc2ccc(-c3cccc(OCc4cccnc4[N+](=O)[O-])n3)cc2F)nc2ccc(C(=O)O)cc21
Category label: F
--
Compound: COCCn1c(Cc2ccc(-c3ccccc3OCc3ccc(C#N)cc3F)cc2F)nc2ccc(C(=O)O)cc21
Category label: F
--
Compound: COCCn1c(Cc2ccc(-c3cccc(OCc4ccc(C#N)cc4F)n3)cc2C#Cc2ccccc2)nc2ccc(C(=O)O)cc21
Category label: F
--
Compound: N#Cc1ccc(COc2cccc(-c3ccc(Cc4nc5cc(F)c(C(=O)O)cc5n4CC4(CF)CC4)c(F)c3)n2)c(F)c1
Category label: T
--
Compound: N#Cc1ccc(COc2cccc(-c3ccc(Cc4nc5ncc(C(=O)O)cc5n4CC4(CF)CC4)c(F)c3)n2)c(F)c1 [Example 94]
Category label: T
--
Compound: N#Cc1ccc(COc2cccc(-c3cc(F)c(Cc4nc5ccc(C(=O)O)cc5n4CC45COCC4C5(F)F)cc3F)n2)c(F)c1 (stereo not drawn)
Category label: T
--
Compound: COc1cc(C#N)ccc1COc1cccc(-c2ccc(Cc3nc4ccc(C(=O)O)cc4n3CC3(CF)CC3)c(F)c2)n1
Category label: F
--
Compound: N#Cc1ccc(COc2cccc(-c3ccc(Cc4nc5ccc(C(=O)O)cc5n4[C@H]4CCOC4)c(F)c3)n2)c(F)c1
Category label: T
--
Compound: COCCn1c(Cc2ccc(-c3cc(OC)cc(OCc4ccc(C#N)cc4F)c3)cc2F)nc2ccc(C(=O)O)cc21
Category label: T
--
Compound: N#Cc1ccc(COc2cccc(-c3cc(F)c(Cc4nc5ccc(C(=O)O)cc5n4C[C@@H]4CCO4)cc3F)n2)c(F)c1 (single isomer, unassigned) [Example 757]
Category label: T
--
Compound: N#Cc1ccc(COc2cccc(-c3ccc(Cc4nc5ccc(C(=O)O)cc5n4CCCO)c(F)c3)n2)c(F)c1
Category label: T
--
Compound: O=C(O)c1cc(F)c2nc(Cc3ccc(-c4ccc(F)c(OCc5ccc(C(F)F)cc5F)n4)cc3F)n(C[C@@H]3CCO3)c2c1
Category label: T
--
Compound: N#Cc1ccc(COc2ncc(F)c(-c3ccc(Cc4nc5c(F)cc(C(=O)O)cc5n4C[C@@H]4CCO4)c(F)c3)n2)c(F)c1
Category label: F
--
Compound: COCCn1c(Cc2ccc(-c3cccc(OCc4cccc(C(C)(C)C#N)c4)n3)cc2F)nc2ccc(C(=O)O)cc21
Category label: F
--
Compound: COCCn1c(Cc2cnn(-c3cccc(OCc4ccc(C#N)cc4F)n3)c2)nc2ccc(C(=O)O)cc21
Category label: F
--
Compound: COCCn1c(Cc2ccc(-c3cccc(OCc4ccc(C#N)cc4F)n3)cc2F)nc2ccc(C(=O)O)c(Cl)c21
Category label: T
--
Compound: COCCn1c(Cc2ccc(-c3cccc(OCc4ccc(C#N)cc4F)n3)c(Br)c2)nc2ccc(C(=O)O)cc21
Category label: F
--
Compound: N#Cc1ccc(COc2nccc(-c3ccc(Cc4nc5ccc(C(=O)O)cc5n4CC4(CF)CC4)cc3F)n2)c(F)c1
Category label: F
--
Compound: N#CCC1(Cn2c(Cc3cc(F)c(-c4ccc(F)c(OCc5ccc(C#N)cc5F)n4)cc3F)nc3ccc(C(=O)O)cc32)CC1
Category label: T
--
Compound: N#Cc1ccc(COc2ccc(F)c(-c3cc(F)c(Cc4nc5c(F)cc(C(=O)O)cc5n4C[C@@H]4CCO4)cc3F)n2)cn1
Category label: T
--
Compound: COC(=O)N1CC(Cn2c(Cc3cc(F)c(-c4cccc(OCc5ccc(C#N)cc5F)n4)cc3F)nc3ccc(C(=O)O)cc32)(OC)C1
Category label: F
--
Compound: COCCn1c(Cc2ccc(-c3cccc(OCc4csc(C#N)c4)n3)cc2F)nc2ccc(C(=O)O)cc21
Category label: F
--
Compound: COCCn1c(Cc2ccc(-c3cccc(OCc4ccc(C#N)cc4F)n3)cc2C#CCCO)nc2ccc(C(=O)O)cc21
Category label: F
--
Compound: COCCn1c(C2(c3ccc(-c4cccc(OCc5ccc(C#N)cc5F)n4)cc3)CC2)nc2ccc(C(=O)O)cc21
Category label: F
--
Compound: COCCn1c(Cc2cc(F)c(-c3cccc(OCc4ccc(C#N)cc4F)n3)cc2F)nc2cc(C)c(C(=O)O)cc21
Category label: T

----------
- Subject of test: GLP-1R (Homo sapiens, UniProt P43220)
- Sequence (P43220 24-463): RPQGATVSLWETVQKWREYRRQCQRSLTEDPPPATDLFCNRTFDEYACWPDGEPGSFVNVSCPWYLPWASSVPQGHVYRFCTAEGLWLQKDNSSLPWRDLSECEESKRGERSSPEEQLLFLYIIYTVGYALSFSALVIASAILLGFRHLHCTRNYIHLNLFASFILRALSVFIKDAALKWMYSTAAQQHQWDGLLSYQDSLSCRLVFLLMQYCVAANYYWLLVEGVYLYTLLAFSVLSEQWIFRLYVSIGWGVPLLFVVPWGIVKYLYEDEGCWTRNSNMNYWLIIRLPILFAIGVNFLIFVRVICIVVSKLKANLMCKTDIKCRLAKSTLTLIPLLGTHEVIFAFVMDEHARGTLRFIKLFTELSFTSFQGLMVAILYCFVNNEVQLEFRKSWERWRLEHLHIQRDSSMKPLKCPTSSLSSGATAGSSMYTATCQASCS
- Experiment summary: GLP-1R activation: cAMP increase in CHO cells stably expressing GLP-1R
- Assay type: cell-based
- Test parameters: cAMP increase, CHO cells stably expressing GLP-1R, 10 point dose response, 30 minutes incubation; read-out: EC50
pEC50: −log10 of the molar value.

Given smiles: COCCn1c(Cc2ccc(-c3cc(C#N)cc(OCc4ccc(C#N)cc4F)c3)cc2F)nc2ccc(C(=O)O)cc21
Subject of test: GLP-1R (Homo sapiens, UniProt P43220)
pEC50: 7.24
--
Given smiles: CCn1nccc1Cn1c(Cc2ccc(-c3cccc(OCc4ccc(C#N)cc4F)n3)cc2F)nc2ccc(C(=O)O)cc21
Subject of test: GLP-1R (Homo sapiens, UniProt P43220)
pEC50: 7.18
--
Given smiles: COCCn1c(Cc2ccc(-c3cccc(OCc4cccc(C(C)C)c4F)n3)cc2F)nc2ccc(C(=O)O)cc21
Subject of test: GLP-1R (Homo sapiens, UniProt P43220)
pEC50: 7.43
--
Given smiles: COCCn1c(Cc2ccc(-c3ncc(F)c(OCc4ccc(C#N)cc4F)n3)cc2F)nc2ccc(C(=O)O)cc21
Subject of test: GLP-1R (Homo sapiens, UniProt P43220)
pEC50: 8.43

----------
Property: Predicted Hepatic Clearance (Pred. Cl.); scope: individual molecules
- Experiment summary: Microsomal stability, human liver microsomes (predicted hepatic clearance)
- Test parameters: predicted from in vitro microsomal stability data
Test readout: Predicted Hepatic Clearance (Pred. Cl.) (L/h/kg)

Molecule: COCCn1c(Cc2ccc(-c3cccc(OCc4ccccc4F)n3)cc2F)nc2ccc(C(=O)O)cc21
Test readout: Predicted Hepatic Clearance (Pred. Cl.)
Bound sign: =
Numeric result: 0.91
--
Molecule: O=C(O)c1ccc2nc(Cc3c(F)cc(-c4cccc(OCc5ccc(C(F)F)cc5F)n4)c(F)c3F)n(C[C@@H]3CCO3)c2c1
Test readout: Predicted Hepatic Clearance (Pred. Cl.)
Bound sign: =
Numeric result: 0.27
--
Molecule: CNC(=O)C(Cn1c(Cc2ccc(-c3cccc(OCc4ccc(C#N)cc4F)n3)cc2F)nc2ccc(C(=O)O)cc21)OC (single isomer, unassigned) [Example 337]
Test readout: Predicted Hepatic Clearance (Pred. Cl.)
Bound sign: =
Numeric result: 0.29
--
Molecule: N#Cc1ccc(COc2cccc(-c3cc(F)c(Cc4nc5ccc(C(=O)O)cc5n4CC45CCC(CO4)C5)cc3F)n2)c(F)c1 (stereo not shown)
Test readout: Predicted Hepatic Clearance (Pred. Cl.)
Bound sign: =
Numeric result: 0.56
--
Molecule: COCCn1c(Cc2ccc(-c3cccc(OCc4ccc(C#N)cc4F)n3)cc2C(F)(F)F)nc2ccc(C(=O)O)cc21
Test readout: Predicted Hepatic Clearance (Pred. Cl.)
Bound sign: =
Numeric result: 0.57
--
Molecule: N#Cc1ccc(COc2cccc(-c3ccc(Cc4nc5ccc(C(=O)O)cc5n4CCC4(CF)CC4)c(F)c3)n2)c(F)c1
Test readout: Predicted Hepatic Clearance (Pred. Cl.)
Bound sign: =
Numeric result: 0.25
--
Molecule: N#Cc1ccc(COc2nccc(-c3cc(F)c(Cc4nc5ccc(C(=O)O)cc5n4C[C@@H]4CCO4)cc3F)n2)c(F)c1
Test readout: Predicted Hepatic Clearance (Pred. Cl.)
Bound sign: =
Numeric result: 0.26
--
Molecule: N#CCC1(Cn2c(Cc3cc(F)c(-c4ccnc(OCc5ccc(C#N)cc5F)n4)cc3F)nc3c(F)cc(C(=O)O)cc32)CC1
Test readout: Predicted Hepatic Clearance (Pred. Cl.)
Bound sign: =
Numeric result: 0.22
--
Molecule: CCn1cncc1Cn1c(Cc2ccc(-c3cccc(OCc4ccc(C#N)cc4F)n3)cc2C#N)nc2ccc(C(=O)O)cc21
Test readout: Predicted Hepatic Clearance (Pred. Cl.)
Bound sign: <
Numeric result: 0.11
--
Molecule: N#Cc1ccc(COc2cccc(-c3ccn(Cc4nc5ccc(C(=O)O)cc5n4CC4(CF)CC4)c(=O)c3)n2)c(F)c1
Test readout: Predicted Hepatic Clearance (Pred. Cl.)
Bound sign: =
Numeric result: 0.14
--
Molecule: COCCn1c(Cc2cc(F)c(-c3cccc(OCc4ccc(C(F)F)cc4F)n3)cc2F)nc2ccc(C(=O)O)cc21
Test readout: Predicted Hepatic Clearance (Pred. Cl.)
Bound sign: =
Numeric result: 0.19
--
Molecule: COCCn1c(Cc2ccc(-c3cccc(OCc4ccc(C#N)cc4F)n3)cc2-c2ccsc2)nc2ccc(C(=O)O)cc21
Test readout: Predicted Hepatic Clearance (Pred. Cl.)
Bound sign: <
Numeric result: 0.11
--
Molecule: COCCn1c(Cc2ccc(-c3cccc(OCc4cccc5c4OC(C)(C)C5)n3)cc2F)nc2ccc(C(=O)O)cc21
Test readout: Predicted Hepatic Clearance (Pred. Cl.)
Bound sign: =
Numeric result: 0.7
